Tested on: α-isomaltosylglucosaccharide-forming enzyme
assay: Transfer-acceptor specificity, enzyme of N75 strain
Type: biochemical, Bacillus globisporus N75 strain
Design: key: −: no saccharide-transferred product was detected through transfer reaction to acceptor; ±: a saccharide-transferred product was detected in an amount less than one percent through transfer reaction to acceptor; +: a saccharide-transferred product was detected in an amount over one percent but less than 10% through transfer reaction to acceptor; ++: a saccharide-transferred product was detected in an amount over ten percent through transfer reaction to acceptor
testContext: acceptor 1.6%, PINE-DEX #100 donor 4%, one unit/g donor, 30° C., pH 6.0, 24 hours
assayMetric: Product of transferring reaction, Enzyme of N75 strain

| molecule | experimentalTarget | recordedMeasurement |
| --- | --- | --- |
| OC[C@@H](O)[C@@H](O)[C@H](O)[C@@H](O)CO [Sorbitol, sorbitol] | α-isomaltosylglucosaccharide-forming enzyme | − |
| O=C[C@@H](O)[C@@H](O)[C@H](O)[C@H](O)CO [D-Mannose, D-mannose] | α-isomaltosylglucosaccharide-forming enzyme | − |

----------
Tested on: α-isomaltosylglucosaccharide-forming enzyme
assay: Action on saccharides as substrates (TLC), enzyme of A19 strain
Assay type: biochemical, Arthrobacter globiformis A19 strain
Design: key: −: it showed no change; +: it showed a slight reduction of the color spot of the substrate and the formation of other reaction product; ++: it showed a high reduction of the color spot of the substrate and the formation of other reaction product; +++: it showed a substantial disappearance of the substrate spot and the formation of other reaction product
testContext: two units/g substrate, substrate 2% (w/v), 30° C., pH 8.4, 24 hours
assayMetric: Enzymatic action, Enzyme of A19 strain

Some compounds with known Enzymatic action, Enzyme of A19 strain results, for comparison:
| compound | recordedMeasurement |
| --- | --- |
| OC[C@H]1O[C@H](O[C@H]2O[C@H](CO)[C@@H](O[C@H]3O[C@H](CO)[C@@H](O)[C@H](O)[C@H]3O)[C@H](O)[C@H]2O)[C@H](O)[C@@H](O)[C@@H]1O [Maltosyl glucoside, maltosyl glucoside] | ++ |
| OC[C@H]1O[C@@H](O[C@H]2[C@H](O)[C@@H](O)C(O)O[C@@H]2CO)[C@H](O)[C@@H](O)[C@H]1O (stereo partly drawn) | − |
| OC[C@H]1O[C@@H](O[C@H]2O[C@H](CO)[C@@H](O)[C@H](O)[C@H]2O)[C@H](O)[C@@H](O)[C@@H]1O | + |
| OC[C@H]1O[C@H](O[C@H]2[C@H](O)[C@@H](O)[C@H](O)O[C@@H]2CO)[C@H](O)[C@@H](O)[C@@H]1O | + |
| OC[C@@H](O)[C@@H](O[C@H]1O[C@H](CO)[C@@H](O)[C@H](O)[C@H]1O)[C@H](O)[C@@H](O)CO | − |

Field: next compound
Entry under test: OC[C@H]1O[C@@](CO)(O[C@H]2O[C@H](CO)[C@@H](O)[C@H](O)[C@H]2O)[C@@H](O)[C@@H]1O . Its Enzymatic action, Enzyme of A19 strain was −

----------
Tested on: α-isomaltosylglucosaccharide-forming enzyme
assay: Action on saccharides as substrates (TLC), enzyme of N75 strain
Type: biochemical, Bacillus globisporus N75 strain
Design: key: −: it showed no change; +: it showed a slight reduction of the color spot of the substrate and the formation of other reaction product; ++: it showed a high reduction of the color spot of the substrate and the formation of other reaction product; +++: it showed a substantial disappearance of the substrate spot and the formation of other reaction product
testContext: two units/g substrate, substrate 2% (w/v), 30° C., pH 6.0, 24 hours
assayMetric: Enzymatic action, Enzyme of N75 strain

| compound | recordedMeasurement |
| --- | --- |
| OC[C@H]1O[C@H](O[C@H]2C(O)O[C@H](CO)[C@@H](O)[C@@H]2O)[C@H](O)[C@@H](O)[C@@H]1O (stereo partly drawn) | + |
| OC[C@H]1O[C@H](O[C@H]2O[C@H](CO)[C@@H](O[C@H]3O[C@H](CO)[C@@H](O)[C@H](O)[C@H]3O)[C@H](O)[C@H]2O)[C@H](O)[C@@H](O)[C@@H]1O [Maltosyl glucoside, maltosyl glucoside] | ++ |
| OC[C@H]1O[C@@](CO)(O[C@H]2O[C@H](CO)[C@@H](O[C@H]3O[C@H](CO)[C@@H](O)[C@H](O)[C@H]3O)[C@H](O)[C@H]2O)[C@@H](O)[C@@H]1O | + |
